FYI, the data here is from ChEMBL document CHEMBL2321860.

tgt: Adenosine receptor A2b (Homo sapiens) (UniProt P29275)
Sequence (P29275 whole entry): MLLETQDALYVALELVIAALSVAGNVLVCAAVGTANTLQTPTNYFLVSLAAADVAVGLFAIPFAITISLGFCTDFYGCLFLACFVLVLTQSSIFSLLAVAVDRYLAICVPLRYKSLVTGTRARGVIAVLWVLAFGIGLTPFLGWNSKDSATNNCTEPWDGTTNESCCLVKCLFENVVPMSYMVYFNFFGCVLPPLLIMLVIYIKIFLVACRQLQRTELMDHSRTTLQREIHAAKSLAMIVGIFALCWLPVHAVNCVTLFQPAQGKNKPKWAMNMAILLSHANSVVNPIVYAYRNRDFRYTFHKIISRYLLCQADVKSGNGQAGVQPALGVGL
protocol description: Inhibition of human A2B adenosine receptor transfected in CHO cells assessed as inhibition of NECA-induced cyclic AMP production at 1 uM after 10 mins by competitive protein binding assay
Type: cell-based
Measured inhibition accompanies every entry in the list below.
Give a bare numeral; the unit % is implied.

compound string: Cc1nc(NC(=O)NCc2ccccc2)c2nn(-c3ccccc3)cc2n1
observable: inhibition
quantitative result: 10
//
compound string: COc1ccc(-n2cc3nc(C)nc(NC(=O)Nc4ccccc4)c3n2)cc1
observable: inhibition
quantitative result: 13
//
compound string: CC(=O)Nc1nc(C)nc2cn(-c3ccccc3)nc12
observable: inhibition
quantitative result: 5
//
compound string: Cc1nc(NC(=O)Nc2ccccc2)c2nn(-c3ccccc3)cc2n1
observable: inhibition
quantitative result: 1
//
compound string: O=C(Cc1ccccc1)Nc1nc(-c2ccccc2)nc2cn(-c3ccccc3)nc12
observable: inhibition
quantitative result: 2
//
compound string: COc1ccc(C(=O)Nc2nc(-c3ccccc3)nc3cn(-c4ccccc4)nc23)cc1
observable: inhibition
quantitative result: 1
//
compound string: O=C(c1ccco1)N(C(=O)c1ccco1)c1nc(-c2ccccc2)nc2cn(-c3ccccc3)nc12
observable: inhibition
quantitative result: 1

// query inhibition value for entry `O=C(Nc1nc(-c2ccccc2)nc2cn(-c3ccccc3)nc12)c1ccco1`
1
